assay: acid dissociation constant (pKa) in water
OBSERVABLE: pKa
No unit in the answer, only the number.

In one line, give reported pKa of the entry O=C(O)C(F)(F)C(F)(F)C(F)(F)C(F)(F)C(F)(F)C(F)(F)C(F)(F)F . 2.5

----------
test: TG/DTA thermal analysis; assay type: physicochemical; details: TG, air, 30° C. to 600° C., heating rate 10° C./min
OBSERVABLE: 10% weight loss temperature (°C)
Reply with just the number (in °C).

In one line, give reported 10% weight loss temperature of the entry C1CN=C2NCCCN2C1.O=S(=O)(O)C(F)(F)C(F)(F)C(F)(F)C(F)(F)C(F)(F)C(F)(F)C(F)(F)F [Comparative ionic liquid 9, TBD pentadecafluoro sulfonic acid salt, reference compound] . 371

In one line, give reported 10% weight loss temperature of the entry CCCCCCCCCCCCCCCCCCC1CCCCN2CCCN=C12.O=S1(=O)NS(=O)(=O)C(F)(F)C(F)(F)C1(F)F (stereo not shown) [Ionic liquid 16] . 386

In one line, give reported 10% weight loss temperature of the entry CCCCCCCCCCCCCCCCCCC1CCCCN2CCCN=C12.O=S(=O)(O)C(F)(F)C(F)(F)C(F)(F)C(F)(F)C(F)(F)C(F)(F)C(F)(F)C(F)(F)F (stereo not shown) [Ionic liquid 15] . 384

In one line, give reported 10% weight loss temperature of the entry CCCCCCCCCCCCCCCCCCN1CCCN2CCCN=C12.O=S(=O)(O)C(F)(F)C(F)(F)C(F)(F)C(F)(F)C(F)(F)C(F)(F)C(F)(F)C(F)(F)F [Ionic liquid 17] . 381

In one line, give reported 10% weight loss temperature of the entry C1CCC2=NCCCN2CC1.O=S(=O)(O)C(F)(F)C(F)(F)C(F)(F)C(F)(F)C(F)(F)C(F)(F)C(F)(F)C(F)(F)F [Comparative ionic liquid 8, reference compound] . 393

In one line, give reported 10% weight loss temperature of the entry CCCCCCCCCCCCCCCCCCN.O=S(=O)(NS(=O)(=O)C(F)(F)C(F)(F)C(F)(F)C(F)(F)F)C(F)(F)C(F)(F)C(F)(F)C(F)(F)F [Ionic liquid 13] . 331

In one line, give reported 10% weight loss temperature of the entry CCCCCCCCCCCCCCCCCCN.O=C(O)C(F)(F)C(F)(F)C(F)(F)C(F)(F)C(F)(F)C(F)(F)C(F)(F)F [Comparative ionic liquid 6, reference compound] . 205
